biological target: UniProt P11712
Sequence (P11712 whole entry): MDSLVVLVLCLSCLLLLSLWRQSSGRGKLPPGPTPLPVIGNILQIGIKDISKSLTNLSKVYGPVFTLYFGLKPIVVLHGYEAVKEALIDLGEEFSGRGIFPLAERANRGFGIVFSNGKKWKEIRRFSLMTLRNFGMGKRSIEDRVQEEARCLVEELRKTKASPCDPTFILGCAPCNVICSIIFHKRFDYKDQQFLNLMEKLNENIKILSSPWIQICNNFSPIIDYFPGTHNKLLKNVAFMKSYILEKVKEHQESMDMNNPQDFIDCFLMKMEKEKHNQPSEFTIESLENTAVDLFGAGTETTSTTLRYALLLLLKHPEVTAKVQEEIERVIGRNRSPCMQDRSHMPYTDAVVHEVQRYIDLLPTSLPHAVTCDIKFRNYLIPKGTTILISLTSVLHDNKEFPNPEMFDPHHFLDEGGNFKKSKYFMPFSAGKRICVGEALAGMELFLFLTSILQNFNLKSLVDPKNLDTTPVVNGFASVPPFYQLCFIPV
pIC50: −log10 of the molar value.
measured.metric: pIC50

- CCN(CC)[C@@H](C)CNC(=O)c1cc(-c2cnn3ccc(-c4cccs4)nc23)nc(N2CC(OC)C2)c1: < 4.60

---

experiment: Oral bioavailability in rat at 5 mg/kg; format: ADME, organism-based; settings: in vivo
measured.metric: bioavailability (%)

• CCN(CC)[C@@H](C)CNC(=O)c1cc(-c2cnn3ccc(-c4cccs4)nc23)nc(N2CC(OC)C2)c1 = 73

---

experiment: AUC (0 to infinity) in rat at 5 mg/kg, po; type: ADME, organism-based; set-up: dose 5 mg/kg, time infinity, route oral; settings: in vivo
measured.metric: AUC(0-inf) (nM·h)

• CCN(CC)[C@@H](C)CNC(=O)c1cc(-c2cnn3ccc(-c4cccs4)nc23)nc(N2CC(OC)C2)c1 = 3000

The reported numbers originate from ChEMBL document CHEMBL4184081.
